# Test context: human gut metagenome, 24 h, 2 µM; also: call rule not given here
Measure: Bacterial Biotransformation

[[record]]
molecule = "CCOC(=O)[C@H](CCc1ccccc1)N[C@@H](C)C(=O)N1[C@H](C(=O)O)C[C@@H]2CCC[C@@H]21"
measure = "Bacterial Biotransformation"
endpoint_result = "Compound metabolized"

[[record]]
molecule = "NC(=O)N1c2ccccc2CC(=O)c2ccccc21 [OXCARBAZEPINE]"
measure = "Bacterial Biotransformation"
endpoint_result = "Compound NOT metabolized"

[[record]]
molecule = "CS(=O)(=O)O.OC(CCN1CCCCC1)(c1ccccc1)c1ccccc1 [PRIDINOL METHANESULFONATE]"
measure = "Bacterial Biotransformation"
endpoint_result = "Compound NOT metabolized"

[[record]]
molecule = "CC(CN(C)C)CN1c2ccccc2CCc2ccccc21.O=C(O)/C=C\\C(=O)O (stereo not drawn) [TRIMIPRAMINE MALEATE]"
measure = "Bacterial Biotransformation"
endpoint_result = "Compound metabolized"

[[record]]
molecule = "CCCCC1=NC2(CCCC2)C(=O)N1Cc1ccc(-c2ccccc2-c2nnn[nH]2)cc1"
measure = "Bacterial Biotransformation"
endpoint_result = "Compound metabolized"

[[record]]
molecule = "CO[C@]12C[C@@H](COC(=O)c3cncc(Br)c3)CN(C)[C@@H]1Cc1cn(C)c3cccc2c13"
measure = "Bacterial Biotransformation"
endpoint_result = "Compound NOT metabolized"

[[record]]
molecule = "CC(C(=O)O)c1ccc2c(c1)Cc1cccnc1O2 (stereo not drawn)"
measure = "Bacterial Biotransformation"
endpoint_result = "Compound metabolized"


With those in mind, consider the next molecule.
## Task Given the molecule CN1C(=O)CC(C)(c2ccccc2)C1=O (stereo not drawn) [METHSUXIMIDE] , what is its reported Bacterial Biotransformation?
## Result Compound NOT metabolized

----------
# Test context: human gut metagenome, 24 h, 2 µM
Measure: Bacterial Biotransformation

These solved cases illustrate the format of a correct answer.
[[record]]
molecule = "COc1cc2nc(N(C)CCCNC(=O)C3CCCO3)nc(N)c2cc1OC (stereo not given)"
measure = "Bacterial Biotransformation"
endpoint_result = "Compound metabolized"

[[record]]
molecule = "CC(=O)OCC(=O)[C@@]12N=C(C)O[C@@H]1C[C@H]1[C@@H]3CCC4=CC(=O)C=C[C@]4(C)[C@H]3[C@@H](O)C[C@@]12C"
measure = "Bacterial Biotransformation"
endpoint_result = "Compound metabolized"

[[record]]
molecule = "CN(C)CCc1c[nH]c2ccc(Cn3cncn3)cc12.O=C(O)c1ccccc1 [RIZATRIPTAN BENZOATE]"
measure = "Bacterial Biotransformation"
endpoint_result = "Compound NOT metabolized"

[[record]]
molecule = "CS(=O)(=O)O.O.O.O.O=C1Cc2cc(CCN3CCN(c4nsc5ccccc45)CC3)c(Cl)cc2N1 [ZIPRASIDONE MESYLATE]"
measure = "Bacterial Biotransformation"
endpoint_result = "Compound metabolized"

[[record]]
molecule = "CC(Oc1c(Cl)cccc1Cl)C1=NCCN1 (stereo not given)"
measure = "Bacterial Biotransformation"
endpoint_result = "Compound metabolized"

[[record]]
molecule = "CN1CCC(=C2c3ccccc3CCc3cccnc32)CC1.O=C(O)/C=C\\C(=O)O.O=C(O)/C=C\\C(=O)O [AZATADINE MALEATE]"
measure = "Bacterial Biotransformation"
endpoint_result = "Compound NOT metabolized"

[[record]]
molecule = "CC(C(=O)O)c1ccc2c(c1)Cc1cccnc1O2 (stereo not given)"
measure = "Bacterial Biotransformation"
endpoint_result = "Compound metabolized"

[[record]]
molecule = "Cc1cc2c(cc1S(N)(=O)=O)S(=O)(=O)CCC2"
measure = "Bacterial Biotransformation"
endpoint_result = "Compound NOT metabolized"

[[record]]
molecule = "COc1ccc2[nH]c([S+]([O-])Cc3ncc(C)c(OC)c3C)nc2c1 (stereo not given)"
measure = "Bacterial Biotransformation"
endpoint_result = "Compound metabolized"


With those in mind, consider the next molecule.
## Task Given the molecule CN1CC(=O)N2[C@H](c3ccc4c(c3)OCO4)c3[nH]c4ccccc4c3C[C@@H]2C1=O , what is its reported Bacterial Biotransformation?
## Result Compound metabolized

----------
# Test context: human gut metagenome, 24 h, 2 µM
Measure: Bacterial Biotransformation

These solved cases illustrate the format of a correct answer.
[[record]]
compound = "CC(CN1c2ccccc2Sc2ccccc21)N(C)C (centres undefined) [PROMETHAZINE]"
measure = "Bacterial Biotransformation"
endpoint_result = "Compound metabolized"

[[record]]
compound = "CN1CCC(=C2c3ccccc3CCc3cccnc32)CC1.O=C(O)/C=C\\C(=O)O.O=C(O)/C=C\\C(=O)O [AZATADINE MALEATE]"
measure = "Bacterial Biotransformation"
endpoint_result = "Compound NOT metabolized"

[[record]]
compound = "C#C[C@]1(O)CC[C@H]2[C@@H]3CCC4=Cc5oncc5C[C@]4(C)[C@H]3CC[C@@]21C [DANAZOL]"
measure = "Bacterial Biotransformation"
endpoint_result = "Compound metabolized"

[[record]]
compound = "CC(C)N(CCC(C(N)=O)(c1ccccc1)c1ccccn1)C(C)C.O=P(O)(O)O (centres undefined) [DISOPYRAMIDE PHOSPHATE]"
measure = "Bacterial Biotransformation"
endpoint_result = "Compound NOT metabolized"

[[record]]
compound = "COc1ccccc1OCC(O)COC(N)=O (centres undefined) [METHOCARBAMOL]"
measure = "Bacterial Biotransformation"
endpoint_result = "Compound NOT metabolized"


## Task Given the compound COc1cc2nc(N3CCN(C(=O)c4ccco4)CC3)nc(N)c2cc1OC [PRAZOSIN] , what is its reported Bacterial Biotransformation?
## Result Compound NOT metabolized

## Task Proceed to CC(CN(C)C)CN1c2ccccc2CCc2ccccc21.O=C(O)/C=C\C(=O)O (centres undefined) [TRIMIPRAMINE MALEATE]
## Result Compound metabolized

## Task Proceed to CC(C)NCC(O)COc1ccc(CCOCC2CC2)cc1 (centres undefined) [BETAXOLOL]
## Result Compound NOT metabolized

## Task Proceed to CCCCc1nc(Cl)c(CO)n1Cc1ccc(-c2ccccc2-c2nn[nH]n2)cc1 [LOSARTAN]
## Result Compound NOT metabolized

----------
# Test summary: The drug is tested on WLS-052 corresponding to human gut metagenome with ENA study accession number: PRJEB37062 and ENA sample accession number: ERS12561747 for biotransformation under anaerobic condition. The drug concentrations were measured over 9 timepoints collected between 0 and 24 hours of incubation by liquid-chromatography-coupled mass spectrometry (LC–MS)
# Test context: 2 µM
Measure: Bacterial Biotransformation

[[record]]
compound = "OCCN1CCN(CCCN2c3ccccc3Sc3ccc(C(F)(F)F)cc32)CC1"
measure = "Bacterial Biotransformation"
endpoint_result = "Compound metabolized"

[[record]]
compound = "O=c1[nH]c2ccccc2n1CCCN1CCC(n2c(=O)[nH]c3cc(Cl)ccc32)CC1"
measure = "Bacterial Biotransformation"
endpoint_result = "Compound NOT metabolized"

[[record]]
compound = "OCCOCCN1CCN(C2=Nc3ccccc3Sc3ccccc32)CC1"
measure = "Bacterial Biotransformation"
endpoint_result = "Compound NOT metabolized"

[[record]]
compound = "COC(=O)Nc1nc2ccc(C(=O)c3ccccc3)cc2[nH]1"
measure = "Bacterial Biotransformation"
endpoint_result = "Compound metabolized"

[[record]]
compound = "CN(C)C(=O)C(CCN1CCC(O)(c2ccc(Cl)cc2)CC1)(c1ccccc1)c1ccccc1 [LOPERAMIDE]"
measure = "Bacterial Biotransformation"
endpoint_result = "Compound metabolized"

[[record]]
compound = "CN1CCC(=C2c3ccccc3CCc3cccnc32)CC1.O=C(O)/C=C\\C(=O)O.O=C(O)/C=C\\C(=O)O [AZATADINE MALEATE]"
measure = "Bacterial Biotransformation"
endpoint_result = "Compound NOT metabolized"

[[record]]
compound = "CN1CCc2c(c3ccccc3n2Cc2ccccc2)C1.CN1CCc2c(c3ccccc3n2Cc2ccccc2)C1.O=S(=O)(O)c1cccc2c(S(=O)(=O)O)cccc12"
measure = "Bacterial Biotransformation"
endpoint_result = "Compound NOT metabolized"

[[record]]
compound = "CN1C(=O)CC(C)(c2ccccc2)C1=O (configuration not stated) [METHSUXIMIDE]"
measure = "Bacterial Biotransformation"
endpoint_result = "Compound NOT metabolized"


## Task Given the compound CC(C)(Oc1ccc(CCNC(=O)c2ccc(Cl)cc2)cc1)C(=O)O [BEZAFIBRATE] , what is its reported Bacterial Biotransformation?
## Result Compound metabolized

## Task Proceed to CN(C)CC(c1ccc(O)cc1)C1(O)CCCCC1.O=C(O)CCC(=O)O (configuration not stated) [DESVENLAFAXINE SUCCINATE]
## Result Compound NOT metabolized

## Task Proceed to Fc1ccc([C@@H]2CCNC[C@H]2COc2ccc3c(c2)OCO3)cc1
## Result Compound NOT metabolized

----------
# Test context: human gut metagenome, 24 h, 2 µM
Measure: Bacterial Biotransformation

These solved cases illustrate the format of a correct answer.
[[record]]
compound = "CCCCC1=NC2(CCCC2)C(=O)N1Cc1ccc(-c2ccccc2-c2nnn[nH]2)cc1 [IRBESARTAN]"
measure = "Bacterial Biotransformation"
endpoint_result = "Compound metabolized"

[[record]]
compound = "COc1cc2nc(N3CCN(C(=O)c4ccco4)CC3)nc(N)c2cc1OC [PRAZOSIN]"
measure = "Bacterial Biotransformation"
endpoint_result = "Compound NOT metabolized"

[[record]]
compound = "CC(C)(C#N)c1cc(Cn2cncn2)cc(C(C)(C)C#N)c1 [ANASTROZOLE]"
measure = "Bacterial Biotransformation"
endpoint_result = "Compound metabolized"

[[record]]
compound = "Br.CN(C)CCCC1(c2ccc(F)cc2)OCc2cc(C#N)ccc21 (stereo not drawn) [CITALOPRAM HYDROBROMIDE]"
measure = "Bacterial Biotransformation"
endpoint_result = "Compound NOT metabolized"

[[record]]
compound = "CC(C)c1c(C(=O)Nc2ccccc2)c(-c2ccccc2)c(-c2ccc(F)cc2)n1CC[C@@H](O)C[C@@H](O)CC(=O)O [ATORVASTATIN]"
measure = "Bacterial Biotransformation"
endpoint_result = "Compound metabolized"

[[record]]
compound = "Clc1ccc(Cn2c(CN3CCCC3)nc3ccccc32)cc1 [CLEMIZOLE]"
measure = "Bacterial Biotransformation"
endpoint_result = "Compound metabolized"


## Task Given the compound CN(C)CC(c1ccc(O)cc1)C1(O)CCCCC1.O=C(O)CCC(=O)O (stereo not drawn) [DESVENLAFAXINE SUCCINATE] , what is its reported Bacterial Biotransformation?
## Result Compound NOT metabolized

## Task Proceed to CC(C)NCC(O)COc1ccc(COCCOC(C)C)cc1.CC(C)NCC(O)COc1ccc(COCCOC(C)C)cc1.O=C(O)/C=C/C(=O)O (stereo not drawn) [BISOPROLOL FUMARATE]
## Result Compound NOT metabolized
